Tested on: SARS-CoV-2, USA-WA1/2020
Experiment: Antiviral assay: inhibition of SARS-CoV-2 cytopathic effect (neutral red) in Vero 76 cells
Type: cell-based
Settings: Severe acute respiratory syndrome coronavirus 2, Vero 76, 120 h, concentration inhibiting CPE by 50%; Vero 76 cells, neutral red, day 5 post-infection; i) and ii) are separate determinations; read-out: Anti-viral Assay (EC50)
endpoint: EC50 (µM)
Please give a number only; it is taken to be in µM.

Field EC50 (entry "N#C[C@@]1(c2ccc3c(N)ncnn23)O[C@H](COP(=O)([O-])OC[C@H]2O[C@@H]([n+]3cccc(C(=O)O)c3)[C@H](O)[C@@H]2O)[C@@H](O)[C@H]1O" ) reads 17
